The compounds listed here are annotated with their growth.
- Tested on: OVCAR-3 ovarian
- ASSAY_COMMENT: NCI-60 one-dose screen, 48 h (100 = growth as untreated, 0 = no growth, -100 = all killed)
- RECORDED_CONDITIONS: 10 µM unless noted
Compounds without any hit were thinned out: in the full panel of roughly 83,000, 20% have a hit.
Report the figure in % without appending any unit label.

These solved cases illustrate the format of a correct answer.
>  <STRUCTURE_AS_SMILES>
O=C(Nc1cccc(-n2ccc3c(NC(=O)c4ccccc4)nccc32)c1)c1ccc(N2CCOCC2)c(C(F)(F)F)c1

>  <U>
%

>  <growth>
26.9

$$$$
>  <STRUCTURE_AS_SMILES>
O=C1C(Cl)=C(Nc2cccc3ccccc23)C(=O)c2ccccc21

>  <U>
%

>  <growth>
39

$$$$
>  <STRUCTURE_AS_SMILES>
NS(=O)(=O)c1ccc(CCn2c(SCC(=O)N/N=C/c3cc4ccccc4[nH]3)nc3ccccc3c2=O)cc1

>  <U>
%

>  <growth>
68.6

$$$$
>  <STRUCTURE_AS_SMILES>
CCOC(=O)N1C2CCC(C2)N1C(=O)OCC

>  <U>
%

>  <growth>
113

$$$$
>  <STRUCTURE_AS_SMILES>
CCSc1cnnc2ccccc12

>  <U>
%

>  <growth>
121

$$$$
>  <STRUCTURE_AS_SMILES>
CCN(CC)c1ccc(/C=C2/NC(=O)NC2=O)cc1

>  <U>
%

>  <growth>
19.3

$$$$
>  <STRUCTURE_AS_SMILES>
CCCCOc1nc2ccc(C)cc2cc1/C=C/C(=O)/C=C(O)/C=C/c1cc2cc(C)ccc2nc1OCCCC

>  <U>
%

>  <growth>
113

$$$$
>  <STRUCTURE_AS_SMILES>
CCCCCCCC/C=C/CCCCCCCC1=NC(C)(C)CN1C(C)C

>  <U>
%

>  <growth>
-55.7

$$$$
>  <STRUCTURE_AS_SMILES>
CC(=O)c1ccc(Br)c([N+](=O)[O-])c1

>  <U>
%

>  <growth>
124

$$$$
>  <STRUCTURE_AS_SMILES>
Cc1cccc(N=NC(=S)NNc2cccc(C)c2)c1

>  <U>
%

>  <growth>
139

$$$$

Query: What reported growth corresponds to CCN(CC)c1ccc(/C=N/NC(=O)C[N+](C)(C)C)cc1 on OVCAR-3 ovarian?
Result: 110

Query: Please give the result for COc1cc(NC(=O)CSc2nc3ccc(Cl)cc3c(=O)n2Cc2ccccc2)cc(OC)c1OC too.
Result: 77.7

* * *

- Test system: UACC-62 melanoma
- ASSAY_COMMENT: NCI-60 one-dose screen, 48 h (100 = growth as untreated, 0 = no growth, -100 = all killed)
- RECORDED_CONDITIONS: 10 µM unless noted
The panel holds about 83,000 compounds, 20% with a hit somewhere; the sample as a whole holds those more often.
Response field class: enum, chosen by comparing growth against low (below 50%), moderate (50% to below 90%), high (90% or more)

>  <COMPOUND>
CCCCCCCOc1cccc(/C=C2\N=C3SCCCN3C2=O)c1

>  <ASSIGNED_CATEGORY>
moderate

$$$$

Query: Classify this compound: C=CCN(CC#N)CC=C
Result: high

Query: Please give the result for CCCCCCCCCCCCCCCCCC(=O)[O][Sn]([CH2]CCC)([CH2]CCC)[CH2]CCC too.
Result: low

Query: Please give the result for COc1cc(Cl)cc(-c2nn(C(=O)NCCN3CCOCC3)cc2-c2ccncc2)c1 too.
Result: moderate

Query: Please give the result for CCOC(=O)c1ccc2c(c1)[n+](=O)c(C(=O)c1ccc3ccccc3c1)c(C(F)(F)F)n2[O-] too.
Result: low

Query: Please give the result for CC(C)CCSc1nc(Nc2ccccc2)c(C#N)c(-c2ccc(F)cc2)n1 too.
Result: moderate

Query: Please give the result for COc1cccc(-c2cc(-c3cccs3)c(C#N)c(=O)[nH]2)c1 too.
Result: high

Query: Please give the result for CCCCCCCCOC(=O)C(C)OC(=O)OCCOCCOC(=O)OC(C)C(=O)OCCCCCCCC (stereo not given) too.
Result: high

Query: Please give the result for Clc1nnc2c3ccccc3ccn12 too.
Result: high

Query: Please give the result for CCN1CCN(Cc2ccc(NC(=O)Nc3ccc(-n4ccc5c(NC(=O)c6ccccc6)nccc54)cc3)cc2C(F)(F)F)CC1 too.
Result: low

* * *

- Test system: SNB-19 CNS
- ASSAY_COMMENT: NCI-60 one-dose screen, 48 h (100 = growth as untreated, 0 = no growth, -100 = all killed)
- RECORDED_CONDITIONS: 10 µM unless noted
Compounds without any hit were thinned out: in the full panel of roughly 83,000, 20% have a hit. Active and inactive are the calls of the source. How the source made its calls: active means growth percent below 10; inactive means the rest.
MEASUREMENT_LABEL: growth

These solved cases illustrate the format of a correct answer.
>  <COMPOUND>
O=C(NNC(=O)c1cccc(Cl)c1)c1ccccc1

>  <MEASUREMENT_LABEL>
growth

>  <REPORTED_MEASUREMENT>
119% (inactive)

$$$$
>  <COMPOUND>
CC(C)(C)[Si](C)(C)OC1[C@@H](CNC(N)=O)O[C@@H](n2cnc3c(NC(=O)Nc4ccccc4)ncnc32)[C@H]1O[Si](C)(C)C(C)(C)C (stereo not given in full)

>  <MEASUREMENT_LABEL>
growth

>  <REPORTED_MEASUREMENT>
88.4% (inactive)

$$$$
>  <COMPOUND>
COc1cc(C2CC(c3ccc(C)cc3)=NN2C=O)ccc1Oc1nc2c(c(=O)n(C)c(=O)n2C)n1C (stereo not given)

>  <MEASUREMENT_LABEL>
growth

>  <REPORTED_MEASUREMENT>
67.2% (inactive)

$$$$
>  <COMPOUND>
c1ccc2oc(-c3cnc4nonc4n3)cc2c1

>  <MEASUREMENT_LABEL>
growth

>  <REPORTED_MEASUREMENT>
88.8% (inactive)

$$$$

Now examine the next entry.
Query: # query: growth of entry COc1ccc(/C=C/C(=O)CCC(=O)O)cc1OC
Result: 111% (inactive)

* * *

The molecules listed here are annotated with their growth.
- System: SR leukemia
- ASSAY_COMMENT: NCI-60 one-dose screen, 48 h (100 = growth as untreated, 0 = no growth, -100 = all killed)
- RECORDED_CONDITIONS: 10 µM unless noted
- Protocol: Growth inhibition of the SR human tumor cell line is measured as a screen for anti-cancer activity. Cells are grown in 96 well plates and exposed to the test compound for 48 hours. Compounds are tested at a single concentration, which is 10^-5 M for most compounds. The reported endpoint is percent growth (GI% or GIPRCNT), where numbers from 0 - 100% represent growth inhibition, and numbers from -100% - 0 represent cell death. For example, a value of 40 represents 60% growth inhibition. […]
About 83,000 compounds went through this panel and 20% of them were active in at least one assay; those are over-represented in the sample as a whole. The source made the active and inactive calls. Rule for the calls: active = growth percent below 10; inactive = the rest.

>  <MOLECULE>
COc1cc2c(c(OC)c1O)C(=O)C(OC)C(c1ccc(O)c(O)c1)O2 (stereo not given)

>  <SYSTEM_UNDER_TEST>
SR leukemia

>  <REPORTED_MEASUREMENT>
10.8% (inactive)

$$$$
>  <MOLECULE>
COc1ccc2c(c1)sc1nc(-c3ccccc3)c(-c3cccc4ccccc34)n12

>  <SYSTEM_UNDER_TEST>
SR leukemia

>  <REPORTED_MEASUREMENT>
10.5% (inactive)

$$$$
>  <MOLECULE>
CCN(CC)CCNC(=O)C(F)(F)C(F)(F)C(F)(F)F

>  <SYSTEM_UNDER_TEST>
SR leukemia

>  <REPORTED_MEASUREMENT>
106% (inactive)

$$$$
>  <MOLECULE>
Cc1cc(C#Cc2ccc(C(C)(C)C)cc2)ccc1-n1c(/C=C/c2c(Cl)cccc2Cl)nc2ccccc2c1=O

>  <SYSTEM_UNDER_TEST>
SR leukemia

>  <REPORTED_MEASUREMENT>
88.1% (inactive)

$$$$

Query: # query: growth of entry COc1cc(C2CC(c3ccc(Cl)cc3)=NN2C=O)ccc1Oc1ccnc2cc(Cl)ccc12 (stereo not given)
Result: 63.2% (inactive)

* * *

- System: SNB-75 CNS
- ASSAY_COMMENT: NCI-60 one-dose screen, 48 h (100 = growth as untreated, 0 = no growth, -100 = all killed)
- RECORDED_CONDITIONS: 10 µM unless noted
- Description: Growth inhibition of the SNB-75 human tumor cell line is measured as a screen for anti-cancer activity. Cells are grown in 96 well plates and exposed to the test compound for 48 hours. Compounds are tested at a single concentration, which is 10^-5 M for most compounds. The reported endpoint is percent growth (GI% or GIPRCNT), where numbers from 0 - 100% represent growth inhibition, and numbers from -100% - 0 represent cell death. For example, a value of 40 represents 60% growth inhibition. […]
This is part of a sample that, as a whole, favours compounds with a hit. Of some 83,000 tested, about 20% had one in any assay.
The compounds listed here are annotated with their growth.
Report the figure in % without appending any unit label.

These solved cases illustrate the format of a correct answer.
>  <COMPOUND>
C[C@@H]1N=C(c2ccc3ccccc3c2)Nc2nc3ccccn3c2C1=O

>  <SYSTEM_UNDER_TEST>
SNB-75 CNS

>  <growth / %>
37.1

$$$$
>  <COMPOUND>
O=C1Nc2ccc(Br)cc2/C1=N/c1nc(-c2ccccc2)cs1

>  <SYSTEM_UNDER_TEST>
SNB-75 CNS

>  <growth / %>
79

$$$$
>  <COMPOUND>
O=C(N/N=C/c1ccc([N+](=O)[O-])o1)c1ccc(O)cc1

>  <SYSTEM_UNDER_TEST>
SNB-75 CNS

>  <growth / %>
84.7

$$$$
>  <COMPOUND>
COc1cc(/C=N/NC(=O)Cn2c(-c3ccc(C)o3)nc3ccccc32)ccc1OCc1ccccc1

>  <SYSTEM_UNDER_TEST>
SNB-75 CNS

>  <growth / %>
83.2

$$$$
>  <COMPOUND>
CCCCCCCOc1cccc(/C=C2\N=C3SCCCN3C2=O)c1

>  <SYSTEM_UNDER_TEST>
SNB-75 CNS

>  <growth / %>
91.2

$$$$

Query: # query: growth of entry CN(C)c1ccc(C2(Cl)c3ccccc3N(C)c3ccccc32)cc1
Result: 71.2

Query: Please give the result for CC(=O)OC[C@H]1O[C@@H](n2c(=O)cc(N)[nH]c2=O)C(OC(C)=O)[C@@H]1OC(C)=O (stereo not given in full) too.
Result: 75.9

Query: Please give the result for COc1ccc(CC2c3cc(OC)c(OC)cc3CC[N+]2(C)CCC(=O)OCCCCCOC(=O)CC[N+]2(C)CCc3cc(OC)c(OC)cc3C2Cc2ccc(OC)c(OC)c2)cc1OC (stereo not given) too.
Result: 63.4

Query: Please give the result for O=c1c2cc(Cl)ccc2oc2ccc(OCCCCCN3CCCCC3)cc12 too.
Result: 102

Query: Please give the result for CC(SC(C)C(=O)N/N=C/c1cccc(Cl)c1)C(=O)N/N=C\c1cccc(Cl)c1 (stereo not given) too.
Result: 83.7

Query: Please give the result for CS(=O)(=O)c1ccc(C(=O)N/N=C/c2cccc3ccccc23)cc1 too.
Result: 89.7

Query: Please give the result for COC(=O)CSc1ccc(Cl)cc1 too.
Result: 94.9

Query: Please give the result for COc1ccc(-c2cc(C(=O)Nc3ccc(Br)cc3)nc3[nH]c(=O)sc23)cc1 too.
Result: 78.4

Query: Please give the result for COc1ccc(/C(C)=N/NC(=O)c2ccc(S(C)(=O)=O)cc2)cc1OC too.
Result: 85.9

Query: Please give the result for O=C(CCl)Nc1ccc2c(c1)C(=O)c1ccccc1C2=O too.
Result: 41.7

Query: Please give the result for COc1cc2ncnc(Nc3ccc(S(=O)(=O)Nc4cc(C)on4)cc3)c2cc1OCCCN1CCN(c2ccc([N+](=O)[O-])cc2)CC1 too.
Result: 91.9

Query: Please give the result for CCCCCCCCCCCCCCCCCC(=O)OCCCCCCCCCCCCC too.
Result: 104

Query: Please give the result for O=[N+]([O-])c1ccc(SSc2ccc([N+](=O)[O-])cc2Cl)c(Cl)c1 too.
Result: 84
